Experiment: Solubility (Test F), McIlvaine buffer pH 6.5
Format: physicochemical
Conditions: disodium hydrogenphosphate-citric acid (McIlvaine) buffer, 25 °C, pH 6.5, aqueous buffer, thermodynamic from solid, McIlvaine buffer pH 6.5, 25° C., 24 to 72 h; theoretical maximum 200 μM
recorded endpoint: solubility (µg/mL)

{"compound": "OC[C@@H](O)CNc1nnc(-c2c(O)cccc2Cl)c2ccccc12", "numeric value": 62.9}

[a] Oc1cc(C(F)(F)F)ccc1-c1nnc(N[C@@H]2CCCCC[C@H]2O)c2ccccc12 (racemic)
[b] Oc1cc(C(F)(F)F)c(F)cc1-c1nnc(N[C@@H]2CCCC[C@H]2O)c2cnccc12
// query Form field 'greater solubility' accepts a or b ; which applies? Lab log: write the label of the selected item as the result.
// result b
(b: 45.7 µg/mL, a: 2.1 µg/mL)

[1] C[C@]1(O)C[C@@H](Nc2nnc(-c3cc(F)c(F)cc3O)c3ccncc23)C1
[2] OC[C@@H](O)CNc1nnc(-c2ccc(Cl)c(F)c2O)c2ccccc12
// query For 1 and 2 , which recorded solubility is lower? Answer with the label corresponding to your selection.
// result 1

---

Biological target: UniProtKB Q12809
Assay: hERG assay (Test D), SyncroPatch 384PE patch clamp, hERG-expressing CHO cells
Format: cell-based
Conditions: rt
recorded endpoint: IC50 (µM)
State the answer as a number, implicitly in µM.

Here are 5 molecules together with their reported answers.
{"compound smiles": "Oc1cc(C(F)(F)F)ccc1-c1nnc(N[C@@H]2CCCC[C@H]2O)c2ccccc12", "system": "UniProtKB Q12809", "numeric value": 17}
{"compound smiles": "Oc1cc(C(F)(F)F)ccc1-c1nnc(N[C@H]2CCC[C@H]2O)c2ccccc12", "system": "UniProtKB Q12809", "numeric value": 19}
{"compound smiles": "Oc1cc(C(F)(F)F)ccc1-c1nnc(N[C@H]2CCCC[C@H]2O)c2ccccc12", "system": "UniProtKB Q12809", "numeric value": 7.4}
{"compound smiles": "C[C@@]1(O)CCC[C@@H](Nc2nnc(-c3ccc(C(F)(F)F)cc3O)c3ccncc23)C1", "system": "UniProtKB Q12809", "numeric value": 34}
{"compound smiles": "Oc1cc(C(F)(F)F)ccc1-c1nnc(N[C@@H]2CCC[C@@H]2O)c2ccccc12", "system": "UniProtKB Q12809", "numeric value": 23}

// field: IC50; key: Oc1cc(OC(F)(F)F)ccc1-c1nnc(N[C@@H]2CCCC[C@H]2O)c2cnccc12 ; value = 19

Noted for C[C@]1(O)C[C@@H](Nc2nnc(-c3ccc(C(F)(F)F)cc3O)c3ccccc23)C1 : its IC50 reads 29

// field: IC50; key: Oc1cc(C2CC2)ccc1-c1nnc(N[C@@H]2CCC[C@H](O)C2)c2cnccc12 ; value = 22

Value of measured IC50 for the entry Oc1cc(C(F)(F)F)ccc1-c1nnc(N[C@@H]2CC[C@@H](O)C2)c2ccccc12 : 22

Sample Oc1cc(C(F)(F)F)ccc1-c1nnc(N[C@@H]2CCCC[C@@H]2O)c2ccccc12 ; IC50 observed: 21

---

pIC50 for assorted molecules
Target: hERG (Homo sapiens (Human))
Sequence (Q12809 whole entry): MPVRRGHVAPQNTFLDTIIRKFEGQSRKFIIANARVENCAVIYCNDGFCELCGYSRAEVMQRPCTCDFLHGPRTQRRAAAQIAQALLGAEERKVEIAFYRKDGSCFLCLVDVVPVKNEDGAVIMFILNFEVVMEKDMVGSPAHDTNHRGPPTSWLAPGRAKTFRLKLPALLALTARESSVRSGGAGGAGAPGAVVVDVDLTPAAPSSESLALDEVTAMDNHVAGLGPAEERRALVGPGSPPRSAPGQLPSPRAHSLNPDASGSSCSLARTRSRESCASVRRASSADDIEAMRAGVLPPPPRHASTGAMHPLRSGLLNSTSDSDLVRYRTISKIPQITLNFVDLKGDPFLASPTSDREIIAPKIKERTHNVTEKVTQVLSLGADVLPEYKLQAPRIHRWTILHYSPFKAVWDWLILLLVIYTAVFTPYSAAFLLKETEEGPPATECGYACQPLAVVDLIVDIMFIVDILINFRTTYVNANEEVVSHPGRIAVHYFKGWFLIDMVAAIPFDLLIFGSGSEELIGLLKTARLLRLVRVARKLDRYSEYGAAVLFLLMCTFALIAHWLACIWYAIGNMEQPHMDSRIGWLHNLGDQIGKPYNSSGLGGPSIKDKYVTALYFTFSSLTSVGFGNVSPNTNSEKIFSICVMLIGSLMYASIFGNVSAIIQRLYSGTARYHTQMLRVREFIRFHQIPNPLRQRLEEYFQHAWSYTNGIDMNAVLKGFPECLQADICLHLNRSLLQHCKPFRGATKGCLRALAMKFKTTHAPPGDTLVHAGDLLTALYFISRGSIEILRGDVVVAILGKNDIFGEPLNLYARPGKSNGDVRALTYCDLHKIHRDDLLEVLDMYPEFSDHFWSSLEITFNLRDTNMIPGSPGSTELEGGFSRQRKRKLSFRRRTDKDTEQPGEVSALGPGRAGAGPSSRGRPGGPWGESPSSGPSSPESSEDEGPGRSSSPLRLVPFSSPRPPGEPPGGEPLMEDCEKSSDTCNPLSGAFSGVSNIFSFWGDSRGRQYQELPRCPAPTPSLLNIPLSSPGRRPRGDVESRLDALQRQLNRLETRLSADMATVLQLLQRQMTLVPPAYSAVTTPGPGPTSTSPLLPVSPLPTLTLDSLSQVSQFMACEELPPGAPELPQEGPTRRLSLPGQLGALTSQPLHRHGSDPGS
Test: hERG assay (Test D), SyncroPatch 384PE patch clamp, hERG-expressing CHO cells
Assay type: cell-based
Conditions: rt
pIC50: −log10 of the molar value.

{"molecule": "OC[C@@H](O)CNc1nnc(-c2c(O)cc(C(F)(F)F)cc2F)c2ccccc12 [Example 7]", "system": "hERG (Homo sapiens (Human))", "pIC50": "< 4.40"}
{"molecule": "C[C@]1(O)CCC[C@@H](Nc2nnc(-c3ccc(C(F)(F)F)cc3O)c3ccncc23)C1 [Example 62]", "system": "hERG (Homo sapiens (Human))", "pIC50": "< 4.40"}
{"molecule": "CC(C)(O)CNc1nnc(-c2c(O)cc(Cl)cc2F)c2ccncc12 [Example 73]", "system": "hERG (Homo sapiens (Human))", "pIC50": "< 4.40"}

Bench note, hERG (Homo sapiens (Human)): Oc1cc(Cl)cc(F)c1-c1nnc(N[C@@H]2CCC[C@H](O)C2)c2cnccc12 [Example 46] , pIC50 reads < 4.40

---

Target: UniProt:Q96P20
Experiment: Human NLRP3 speck formation assay (Test A), nigericin triggered ASC-speck formation in ASC-GFP reporter monocytes
pEC50: −log10 of the molar value.
recorded endpoint: pEC50

Please review the entries below; each comes with its answer.
{"molecule": "Oc1cc(OC(F)(F)F)ccc1-c1nnc(N[C@@H]2CCC[C@H](O)C2)c2cnccc12 [Example 48]", "pEC50": 7.54}
{"molecule": "Oc1cc(C(F)(F)F)cc(F)c1-c1nnc(N[C@@H]2CCC[C@H](O)C2)c2cnccc12 [Example 45]", "pEC50": 7.36}
{"molecule": "Oc1cc(C(F)(F)F)ccc1-c1nnc(N[C@H]2CC[C@@H](O)C2)c2ccccc12 (single isomer, unassigned) [Example 35]", "pEC50": 6.67}
{"molecule": "C[C@]1(O)C[C@@H](Nc2nnc(-c3c(O)cc(F)cc3F)c3ccncc23)C1 [Example 69]", "pEC50": 6.52}
{"molecule": "Oc1cc(Cl)cc(F)c1-c1nnc(N[C@@H]2CCC[C@H](O)C2)c2cnccc12 [Example 46]", "pEC50": 7.43}
{"molecule": "Oc1cc(C(F)(F)F)ccc1-c1nnc(N[C@H]2CCC[C@H]2O)c2ccccc12 [Example 21]", "pEC50": 6.98}

[P] C[C@]1(O)C[C@H](Nc2nnc(-c3ccc(C(F)(F)F)cc3O)c3ccncc23)C1 [Example 84]
[Q] Cc1ccc2c(NC[C@H](O)CO)nnc(-c3ccc(C(F)(F)F)cc3O)c2c1 [Example 15]
// query // compare: P vs Q , metric pEC50, want the smaller Use the label to indicate which entry you chose.
// result Q

---

Assay: Solubility (Test F), McIlvaine buffer pH 6.5
Type: physicochemical
Settings: disodium hydrogenphosphate-citric acid (McIlvaine) buffer, 25 °C, pH 6.5, aqueous buffer, thermodynamic from solid, McIlvaine buffer pH 6.5, 25° C., 24 to 72 h; theoretical maximum 200 μM
recorded endpoint: solubility (µg/mL)

[a] Oc1cc(C(F)(F)F)ccc1-c1nnc(N[C@H]2CC[C@@H](O)C2)c2ccccc12 (single isomer, unassigned)
[b] Oc1cc(C(F)(F)F)ccc1-c1nnc(N[C@H]2C[C@H](O)C2)c2ccccc12
// query Could you please tell me which of these two has the higher solubility: a or b ? Answer with the label corresponding to your selection.
// result a
(a: 9.3 µg/mL, b: 1.4 µg/mL)

---

Biological target: Human NLRP3 (Homo sapiens (Human), UniProt Q96P20)
Sequence (Q96P20 whole entry): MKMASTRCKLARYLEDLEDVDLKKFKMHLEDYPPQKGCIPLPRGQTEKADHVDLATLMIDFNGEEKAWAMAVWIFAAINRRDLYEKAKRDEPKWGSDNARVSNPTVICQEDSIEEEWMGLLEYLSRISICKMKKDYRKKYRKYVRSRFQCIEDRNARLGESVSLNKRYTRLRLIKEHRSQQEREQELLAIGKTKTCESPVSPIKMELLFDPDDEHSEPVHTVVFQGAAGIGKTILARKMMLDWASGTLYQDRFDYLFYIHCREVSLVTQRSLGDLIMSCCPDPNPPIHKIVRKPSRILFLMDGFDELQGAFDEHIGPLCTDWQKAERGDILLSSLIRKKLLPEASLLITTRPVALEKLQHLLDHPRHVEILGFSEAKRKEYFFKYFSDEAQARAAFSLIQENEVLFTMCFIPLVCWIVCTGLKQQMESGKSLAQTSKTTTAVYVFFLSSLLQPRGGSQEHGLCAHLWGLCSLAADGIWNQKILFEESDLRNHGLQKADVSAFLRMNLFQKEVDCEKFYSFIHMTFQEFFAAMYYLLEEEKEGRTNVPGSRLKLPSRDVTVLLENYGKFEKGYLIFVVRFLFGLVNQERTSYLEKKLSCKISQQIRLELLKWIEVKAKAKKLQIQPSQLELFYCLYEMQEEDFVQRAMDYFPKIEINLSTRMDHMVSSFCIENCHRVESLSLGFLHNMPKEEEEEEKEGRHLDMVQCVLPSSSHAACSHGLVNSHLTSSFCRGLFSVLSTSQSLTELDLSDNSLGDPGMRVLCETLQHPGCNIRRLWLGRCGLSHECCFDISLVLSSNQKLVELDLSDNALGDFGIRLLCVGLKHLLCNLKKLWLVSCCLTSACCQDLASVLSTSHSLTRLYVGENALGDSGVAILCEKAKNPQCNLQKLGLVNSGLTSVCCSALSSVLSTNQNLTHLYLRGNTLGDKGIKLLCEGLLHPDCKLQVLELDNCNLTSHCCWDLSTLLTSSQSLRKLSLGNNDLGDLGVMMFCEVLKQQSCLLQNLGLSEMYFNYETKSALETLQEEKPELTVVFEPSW
Conditions: Test C IC50, IL-1β release, THP-1 cells, LPS 2 μg/mL 24 h, BzATP 1 mM
pIC50: −log10 of the molar value.
recorded endpoint: pIC50

[A] C[C@]1(O)CC[C@@H](Nc2nnc(-c3ccc(C(F)(F)F)cc3O)c3ccncc23)C1 [Example 39]
[B] Oc1cccc(C(F)(F)F)c1-c1nnc(N[C@@H]2CCC[C@H](O)C2)c2cnccc12 (single isomer, unassigned) [Example 49]
// query Select one: A or B . Criterion: greater recorded pIC50. Record your answer as the label of the chosen record.
// result A
(A: 8.15, B: 6.39)

[I] Oc1cc(C(F)(F)F)ccc1-c1nnc(N[C@H]2CCC[C@H]2O)c2ccccc12 [Example 21]
[II] OC[C@@H](O)CNc1nnc(-c2c(O)cccc2Cl)c2ccccc12 [Example 10]
// query Between I and II , whose measured pIC50 reads higher? // return label of chosen record
// result I

[I] Oc1cc(C(F)(F)F)ccc1-c1nnc(N[C@@H]2CCC[C@H]2O)c2ccccc12 [Example 20]
[II] Oc1cc(C2CC2)ccc1-c1nnc(N[C@@H]2CCC[C@H](O)C2)c2cnccc12 [Example 52]
// query // select label with min value of measured pIC50 from [ I , II ] Indicate which entry you chose by stating its label.
// result I
(I: 8.00, II: 8.22)

---

Assay: Solubility (Test F), McIlvaine buffer pH 6.5
Format: physicochemical
Settings: 25 °C, pH 6.5, aqueous buffer, thermodynamic from solid, McIlvaine buffer pH 6.5, 25° C., 24 to 72 h; theoretical maximum 200 μM
recorded endpoint: solubility (µg/mL)
Use µg/mL as the unit, but write only the number.

Looking up C[C@@]1(O)CCC[C@@H](Nc2nnc(-c3ccc(C(F)(F)F)cc3O)c3ccncc23)C1 , I see its solubility listed as 64

---

Biological target: Human NLRP3 (Homo sapiens (Human))
Settings: Test C IC50, IL-1β release, THP-1 cells, LPS 2 μg/mL 24 h, BzATP 1 mM
pIC50: −log10 of the molar value.
recorded endpoint: pIC50

Here are 6 compounds together with their reported answers.
{"compound": "Oc1cc(OC(F)(F)F)ccc1-c1nnc(N[C@@H]2CCC[C@H](O)C2)c2cnccc12 [Example 48]", "numeric value": 8.40}
{"compound": "CC(C)(O)CNc1nnc(-c2c(O)cc(C(F)(F)F)cc2F)c2ccncc12 [Example 74]", "numeric value": 7.74}
{"compound": "Oc1cccc(C(F)(F)F)c1-c1nnc(N[C@@H]2CCC[C@H](O)C2)c2cnccc12 (single isomer, unassigned) [Example 50]", "numeric value": 7.33}
{"compound": "Oc1cc(C(F)(F)F)ccc1-c1nnc(N[C@@H]2CC[C@@H](O)C2)c2ccccc12 [Example 16]", "numeric value": 7.70}
{"compound": "Oc1cc(C(F)(F)F)ccc1-c1nnc(N[C@@H]2CCC[C@@H]2O)c2ccccc12 [Example 19]", "numeric value": 8.30}
{"compound": "Oc1cc(C(F)(F)F)ccc1-c1nnc(N[C@@H]2CCCCC[C@H]2O)c2ccccc12 (racemic) [Example 27]", "numeric value": 7.47}

[1] Cc1ccc(-c2nnc(NC[C@H](O)CO)c3ccccc23)c(O)c1 [Example 11]
[2] Oc1cc(OC(F)(F)F)ccc1-c1nnc(N[C@@H]2CCCC[C@H]2O)c2cnccc12 [Example 56]
[3] Cc1ccc2c(-c3ccc(C(F)(F)F)cc3O)nnc(N[C@@H]3CCC[C@H](O)C3)c2n1 [Example 91]
[4] Oc1cc(C(F)(F)F)ccc1-c1nnc(N[C@H]2C[C@@H](O)C2)c2ccccc12 [Example 33]
[5] Cc1ccc2c(-c3ccc(C(F)(F)F)cc3O)nnc(NC[C@H](O)CO)c2c1 [Example 14]
// query Sort (5 compounds) by pIC50: min first. Give me the labels in the order the question wants.
// result 4, 1, 3, 5, 2
(4: 7.34, 1: 7.64, 3: 8.00, 5: 8.30, 2: 8.52)

[1] Oc1cc(C(F)(F)F)ccc1-c1nnc(N[C@H]2CC[C@@H](O)C2)c2cnccc12 [Example 83]
[2] Oc1cc(C(F)(F)F)c(F)cc1-c1nnc(N[C@@H]2CCCC[C@H]2O)c2cnccc12 [Example 54]
// query Look at 1 and 2 . Which one has the lower recorded pIC50 number? Output the label that corresponds to your choice.
// result 1
(1: 7.70, 2: 8.40)

[A] OC[C@@H](O)CNc1nnc(-c2c(O)cc(C(F)(F)F)cc2F)c2ccccc12 [Example 7]
[B] Oc1cc(Cl)cc(F)c1-c1nnc(N[C@@H]2CCCC[C@H]2O)c2cnccc12 [Example 57]
// query Name the one with the greater pIC50 value, either A or B as given. Which one? Tell me its label.
// result B
